Reference source for all entries: paper PMC5601360

measured.on: human KOP receptor (Homo sapiens, UniProt P41145)
assay.protocol: [35S]GTPγS binding assay using CHO-hKOP cell membranes
conditions: CHO-hKOP membranes; mean ± SEM
pEC50: −log10 of the molar value.
Could you label it TRUE if measured pEC50 is 8 or higher, and FALSE otherwise?

Task item: State whether the measured pEC50 reaches 8, counting equality as reaching it, for Cl.Oc1cccc(CCN(CCc2cccc(O)c2F)CC2CCC2)c1
Reply: TRUE

Task item: Exam item: decide whether the reported pEC50 for Cl.Oc1cccc(CCN(CCc2ccccc2)CC2CCCCC2)c1F is at least 8.
Reply: TRUE

Task item: hey, is pEC50 for this one >= 8? CC(C)CCN(CCc1ccccc1)CCc1cccc(O)c1.Cl
Reply: FALSE

Task item: # check: pEC50 of Cl.Oc1cccc(CCN(CCc2ccccc2)CC2CCCCC2)c1 is greater than or equal to 8
Reply: TRUE

Task item: Has Cl.Oc1cccc(CCN(CCc2cccc(O)c2)CC2CCCCC2)c1 a recorded pEC50 greater than or equal to 8?
Reply: FALSE

Task item: Is pEC50 at least 8? Consider Cl.Oc1cccc(CCN(CCc2ccccc2)Cc2ccccc2)c1
Reply: TRUE

Task item: Confirm if pEC50 reported for the molecule Cl.Oc1ccc(CCN(CCc2cccc(O)c2F)CC2CCC2)cc1 is 8 or above.
Reply: FALSE

Task item: I'd appreciate it if you could say whether Cl.Oc1cccc(CCN(CCc2cccc(O)c2)CC2CC2)c1 has pEC50 at least equal to 8.
Reply: FALSE

Task item: Test whether the molecule Cl.Oc1cccc(CCN(CCc2ccccc2)C2CCC2)c1 records pEC50 of 8 or higher.
Reply: FALSE

Task item: hey, is pEC50 for this one >= 8? Cl.Oc1cccc(CCN(CCc2cccc(O)c2)CC2CCC2)c1
Reply: TRUE

Task item: Please check the record Cl.Oc1cccc(CCN(CCc2ccccc2)CC2CCCC2)c1 and state if its pEC50 is at or above 8.
Reply: TRUE

Task item: Identify whether the reported pEC50 of the following molecule is 8 or greater: Cl.Oc1ccc(CCN(CCc2cccc(O)c2)CC2CCCCC2)cc1
Reply: FALSE

Task item: Decide: pEC50 of Cl.Oc1ccc(CCN(CCc2cccc(O)c2)CC2CCC2)cc1 >= 8?
Reply: FALSE

Task item: Hello, I need to know if c1ccc(CCN(CCc2ccccc2)CC2CCC2)cc1 has measured pEC50 not below 8. Thanks!
Reply: FALSE

Task item: For this molecule, is measured pEC50 8 or higher? C=CCN(CCc1ccc(O)cc1)CCc1cccc(O)c1
Reply: FALSE

Task item: Reported pEC50 reaches at least 8 for C=CCN(CCc1cccc(O)c1)CCc1cccc(O)c1.Cl ?
Reply: FALSE

###

Here we list molecules with their recorded Ki when tested on human MOP receptor (Homo sapiens).
// return numeric value only (unit: nM, not printed)

Task item: Which Ki value is on record for Cl.Oc1cccc(CCN(CCc2ccccc2)Cc2ccccc2)c1 [Compound 5] ?
Reply: 463

Task item: Which Ki value belongs to Cl.Oc1cccc(CCN(CCc2ccccc2)CC2CCC2)c1F [Compound 18] ?
Reply: 398

Task item: Entry C=CCN(CCc1cccc(O)c1)CCc1cccc(O)c1.Cl [Compound 10] has what Ki?
Reply: 358

Task item: GET /values?readout=Ki&item= Cl.Oc1ccc(CCN(CCc2cccc(O)c2F)CC2CCC2)cc1 [Compound 21]
Reply: 523

Task item: Param item = Cl.Oc1cccc(CCN(CCc2ccccc2)CC2CCCCC2)c1F [Compound 19] ; retrieve measured Ki.
Reply: 851

###

measured.on: human KOP receptor (Homo sapiens, UniProt P41145)
Construct: expressed in transfected cells; host or cells: CHO-hKOP cells (gift of Dr. Lawrence Toll, SRI International)
assay.protocol: Competition binding assay, CHO-hKOP cell membranes, [3H]U69,593
conditions: Ki ratio MOP/KOP
reported.property: selectivity MOP/KOP
Give the figure by itself; no unit, no explanation.

Task item: So what's the measured selectivity MOP/KOP for this one? Cl.Oc1cccc(CCN(CCc2cccc(O)c2F)CC2CCC2)c1 [Compound 20]
Reply: 4642

Task item: If you can, please state the reported selectivity MOP/KOP value of CC(C)CCN(CCc1ccccc1)CCc1cccc(O)c1.Cl [Compound 7] .
Reply: 96

Task item: Can you share its selectivity MOP/KOP? I mean this compound: Cl.Oc1cccc(CCN(CCc2ccccc2)Cc2ccccc2)c1 [Compound 5]
Reply: 652

Task item: Consider the compound CC(C)CCN(CCc1cccc(O)c1)CCc1cccc(O)c1.Cl [Compound 13] and give its measured selectivity MOP/KOP.
Reply: 100

Task item: Please look up its selectivity MOP/KOP: Cl.Oc1cccc(CCN(CCc2ccccc2)CC2CCC2)c1F [Compound 18]
Reply: 5529

###

measured.on: human DOP receptor (Homo sapiens)
Construct: expressed in transfected cells; host or cells: CHO-hDOP cells (gift of Dr. Lawrence Toll, SRI International)
assay.protocol: Competition binding assay, CHO-hDOP cell membranes, [3H]diprenorphine
conditions: mean ± SEM, read-out: receptor binding affinity Ki DOP
reported.property: pKi
# reply with the number alone; pKi is -log10 of concentration in mol/L

Task item: Provide the documented pKi with human DOP receptor (Homo sapiens) as the system for Cl.Oc1ccc(CCN(CCc2cccc(O)c2F)CC2CCC2)cc1 [Compound 21]
Reply: 5.88

Task item: Lab note: need pKi with human DOP receptor (Homo sapiens) for entry Cl.Oc1cccc(CCN(CCc2ccccc2)Cc2ccccc2)c1 [Compound 5] , please look it up.
Reply: 5.73

Task item: Please state recorded pKi (tested on human DOP receptor (Homo sapiens)) of Cl.Oc1cccc(CCN(CCc2cccc(O)c2)CC2CCC2)c1 [Compound 8]
Reply: 5.48

Task item: Any idea what pKi came out for C=CCN(CCc1ccc(O)cc1)CCc1cccc(O)c1 [Compound 16] on human DOP receptor (Homo sapiens)?
Reply: 5.96

Task item: Report pKi for Cl.Oc1ccc(CCN(CCc2cccc(O)c2)CC2CCCCC2)cc1 [Compound 15] tested on human DOP receptor (Homo sapiens).
Reply: 5.79

Task item: Find the measured pKi: item Cl.Oc1cccc(CCN(CCc2ccccc2)CC2CCCC2)c1 [Compound 3] , target or system human DOP receptor (Homo sapiens).
Reply: 5.64

Task item: Given the entry Cl.Oc1cccc(CCN(CCc2cccc(O)c2)CC2CCCCC2)c1 [Compound 11] , what pKi was observed with human DOP receptor (Homo sapiens)?
Reply: 5.84

Task item: Give pKi (human DOP receptor (Homo sapiens)) of the following compound: CC(C)CCN(CCc1cccc(O)c1)CCc1cccc(O)c1.Cl [Compound 13]
Reply: 5.83

Task item: Form: Entry = Cl.Oc1ccc(CCN(CCc2cccc(O)c2)CC2CCC2)cc1 [Compound 14] | System = human DOP receptor (Homo sapiens) | pKi = ____
Reply: 6.37

Task item: Tell me reported pKi for CC(C)CCN(CCc1ccccc1)CCc1cccc(O)c1.Cl [Compound 7] , tested with human DOP receptor (Homo sapiens).
Reply: 5.56

Task item: What reported pKi corresponds to Cl.Oc1cccc(CCN(CCc2ccccc2)C2CCC2)c1 [Compound 6] on human DOP receptor (Homo sapiens)?
Reply: 5.45

Task item: # returns recorded pKi (system: human DOP receptor (Homo sapiens)) for Cl.Oc1cccc(CCN(CCc2cccc(O)c2)CC2CC2)c1 [Compound 9]
Reply: 5.55

Task item: Query pKi on human DOP receptor (Homo sapiens) for Cl.Oc1cccc(CCN(CCc2ccccc2)CC2CCCCC2)c1 [Compound 4]
Reply: 5.67

Task item: I'm curious: which pKi was measured for Cl.Oc1cccc(CCN(CCc2cccc(O)c2)CC2CCCC2)c1 [Compound 12] tested on human DOP receptor (Homo sapiens)?
Reply: 5.56

Task item: Return pKi measured with human DOP receptor (Homo sapiens) given this compound: c1ccc(CCN(CCc2ccccc2)CC2CCC2)cc1 [Compound 22]
Reply: 5.66

Task item: Lookup: pKi / human DOP receptor (Homo sapiens) / C=CCN(CCc1cccc(O)c1)CCc1cccc(O)c1.Cl [Compound 10]
Reply: 6.13

###

Test system human KOP receptor (Homo sapiens, UniProt P41145), pKi listed for each of the compounds.
In simple prose, pKi is minus the logarithm base ten of a concentration in moles per litre.

Task item: # pKi lookup, item Cl.Oc1cccc(CCN(CCc2cccc(O)c2F)CC2CCC2)c1
Reply: 9.92

Task item: pKi lookup needed for Cl.Oc1cccc(CCN(CCc2ccccc2)CC2CCCCC2)c1 , thanks.
Reply: 10.21

Task item: # lookup: pKi of c1ccc(CCN(CCc2ccccc2)CC2CCC2)cc1
Reply: 7.10

Task item: Please look up its pKi: CC(C)CCN(CCc1cccc(O)c1)CCc1cccc(O)c1.Cl
Reply: 8.68

Task item: I have this compound here, Cl.Oc1ccc(CCN(CCc2cccc(O)c2)CC2CC2)cc1 , and I need its recorded pKi.
Reply: 8.45

Task item: Returns the measured pKi for the input compound. Input: Cl.Oc1cccc(CCN(CCc2ccccc2)CC2CCC2)c1F
Reply: 10.14

Task item: # input compound: Cl.Oc1cccc(CCN(CCc2cccc(O)c2)CC2CCCC2)c1 ; wanted: its pKi
Reply: 9.51

Task item: Value lookup for pKi; key = Cl.Oc1cccc(CCN(CCc2ccccc2)CC2CCCCC2)c1F
Reply: 10.40

Task item: What pKi value was documented for this compound, Cl.Oc1cccc(CCN(CCc2cccc(O)c2)CC2CCC2)c1 ?
Reply: 9.42

Task item: Please report the recorded pKi for Cl.Oc1ccc(CCN(CCc2cccc(O)c2F)CC2CCC2)cc1 .
Reply: 8.47
